Assay: yeast display, Sf9 membrane polyspecificity reagent, FACS + sequencing; frameworks hold sequencing errors
propertyName: polyreactivity (PSR sort gate)

Worked cases, answers included:
* QVQLVESGGGLVQAGGSLRLICDASGRIFQFYAMGWYRQAPGKERELVAVITRRGGSTHYADSVKGRFTISRDNAKNTVYLQMNSLNPEDTAVYYCAAEWQTQGYEYWGQGTQVTVSS | high polyreactivity
* QVQLVESGGGLVQAGGSLRLSCAASGRTFRINAMGWYRQAPGKERELVAAITRGDTNYADSVKGRFTISRDNAKNTVYLQMNSLKPEDTAVYYCNADLSVRYPVFRELDYWGQGTQVTVSS | low polyreactivity
* QVHLVESGGGLVQAGGSLRLSCAASGNTHVKNAMGWYRQAPGKERELVAAISSSGGRTYYGDSVKGRFTISRDNAKNTVYLQMNSLKPDDTAVYYCAARYPSGYYYWGQGTQVTVSS | high polyreactivity
* QVQLVESGGGLVQAGGSLRLSCAASGIIFYLNAMGWYRQAPGKERELVAGITYSGGSTYYADSVKGRFTISRDNAKNTVYLQMNSLKPEDTAVYYCAARTKWYIFLYDYWGQGTQVTVSS | low polyreactivity

Kindly review the next sequence as well.
GET /values?readout=polyreactivity (PSR sort gate)&item= QVQLVESGGGLVQAGGSLRLSCASSGIIFTFNAKGWYRQAPGKERELVAAISGRGARTYYADSVKGRFTISRDNAKNTVYLKMKSLKPEDTAVYYCAAPSNSYRSLSNSYQYYYWGQGSQVTVSS high polyreactivity

---

Test: yeast display, Sf9 membrane polyspecificity reagent, FACS + sequencing; frameworks hold sequencing errors
propertyName: polyreactivity (PSR sort gate)

- QVQLVESGGGLVQAGGSLRLSCAASGSTFSNNTMGWYRQAPGKETELVATIDFNGGSTYYADSVKGRFTISRDNAKNTVYLQMNSLKPEDTAGYYCAAAEYLYTLPYGYWGQGTQVTVSS: low polyreactivity
- QVQLVESGGGLVQAGGSLRLSCAASGRIFTRNAMRWYRQAPGKEREFVAAISHSGGSTYADSVKGRFTISRDNAKNTVFLQMNSLKPEDTAVFYCAAEWSSLNFDYWGQGTQVTVSS: low polyreactivity
- QVQLLETGGVLVQAGGSLRLSCAASGFIFGINAMGWYRQAPGKERELVATITSGGGTNYADSVKGRFTISRDNAKINVYLQMNSLKPEDSAVYYCNAQIAWATYEGDYWGQGTQVTVSS: low polyreactivity
- QVQLVESGGGLVQAGGSLRLSCAASGITFSQYAMGWYRQAPGTERELVAAISGSGGDTYYADSVKGRFTISRDNAKNTVYLQMNSLKPEDTAVYYCNADYESVYYEDYDYWGQGTQVTVSS: low polyreactivity

---

Assay: yeast display, Sf9 membrane polyspecificity reagent, FACS + sequencing; frameworks hold sequencing errors
propertyName: polyreactivity (PSR sort gate)

* QVQLVESGGGLVQAGGSLRLSCAASGSIFGFNAMGWYRQARGKERELVAAINNGGSTNYADSVKGRFTISRDNAKNTVYLQMNSLKPEDTAVYYCAARLNYIRRGYWGQGTQVTVSS | high polyreactivity
* QEQLQESGGGQVQAGGSLLLSCAASGNIIRYYYMGWYRQAPGKERELVAAITYGTSTNYADSVKGRFTISRDNAKNTVYLQMNSLKPEDTAVYYCAVVVNYGDPLDNWGQGTQVTVSS | high polyreactivity
